target: human IL-17AA (Homo sapiens, UniProt Q16552); construct: host or cells: HEK (human embryonic kidney) cells; test: IL-8 release assay in human epithelial keratinocytes adult (HEKa); type: cell-based; conditions: HEKa cells, 3 ng/mL HEK-human IL-17AA + 10 ng/mL human TNFalpha; read-out: Rel EC50 IL-8 release assay
pEC50: −log10 of the molar value.
// values below are reported pEC50

Use these answered entries as a reference point.
1) Cc1n[nH]c(C)c1-c1ccc(NC(=O)[C@@H](NC(=O)OC2CC2)C2CCCCCC2)cc1 ... > 7.00
2) Cc1n[nH]c(C)c1-c1ccc(NC(=O)[C@@H](NC(=O)N2CCCC2CO)C2CCCCC2)cc1 (single isomer, unassigned) [Example 473] ... < 6.00
3) Cc1ncoc1-c1ccc(NC(=O)[C@@H](NC(=O)c2ccnn2C(C)C)C(C2CC2)C2CC2)cc1 ... 6.00 to 7.00
4) Cc1n[nH]c(C)c1-c1ccc(NC(=O)[C@H](NC(=O)c2ccnn2C(C)C)C2CCC3(CC2)CC3)cc1 ... < 6.00

# query: pEC50 | item Cc1n[nH]c(C)c1-c1ccc(NC(=O)[C@@H](NC(=O)c2ccnn2C(C)C2CC2)C(C2CC2)C2CC2)cc1 (stereo partly shown) | system: human IL-17AA (Homo sapiens, UniProt Q16552)
> 7.00

Cool, now "Cc1n[nH]c(C)c1-c1ccc(NC(=O)[C@@H](NC(=O)C2(C)CC2)C2CCCCC2)cc1"
6.00 to 7.00

Do the same for Cc1n[nH]c(C)c1-c1ccc(NC(=O)[C@@H](NC(=O)c2ccnn2CCC(C)O)C(C2CC2)C2CC2)cc1 (stereo partly shown) please
> 7.00

---

pEC50: recorded values
target: human IL-17AA (Homo sapiens); assay: IL-8 release assay in human epithelial keratinocytes adult (HEKa); conditions: HEKa cells, 3 ng/mL HEK-human IL-17AA + 10 ng/mL human TNFalpha; read-out: Rel EC50 IL-8 release assay
pEC50: −log10 of the molar value.

Sample records with pEC50:
1. Cc1n[nH]c(C)c1-c1ccc(NC(=O)C(NC(=O)c2ccnn2C(C)C)C(C2CCC2)C2CCC2)cc1 (single isomer, unassigned) [Example 40] ... 6.00 to 7.00
2. CCn1nccc1C(=O)N[C@H](C(=O)Nc1ccc(-n2c(C)c[nH]c2=O)cc1)C(C1CC1)C1CC1 ... < 6.00
3. Cc1n[nH]c(C)c1-c1ccc(NC(=O)C(NC(=O)c2ccnn2C(C)C)C2CCC3(CC2)CC3)cc1 (racemic) ... 6.00 to 7.00
4. Cc1ncn(C)c1-c1ccc(NC(=O)C(NC(=O)c2ccnn2C)C2CCC(F)(F)CC2)cc1 (single isomer, unassigned) [Example 334] ... < 6.00
5. Cc1n[nH]c(C)c1-c1ccc(NC(=O)[C@@H](NC(=O)c2ccnn2CC(F)(F)F)C(C2CC2)C2CC2)cc1 ... > 7.00
6. CCC(C)[C@H](NC(=O)OC(C)(C)C)C(=O)Nc1ccc(-c2cncn2C)cc1 (stereo partly shown) ... < 6.00

Next up:
Can you share its pEC50? I mean this compound: "Cc1n[nH]c(C)c1-c1ccc(NC(=O)[C@@H](NC(=O)OCc2ccccc2)C2CCCCC2)cc1"
6.00 to 7.00

---

Target: human IL-17AA (Homo sapiens, UniProt Q16552)
Sequence (Q16552 24-155): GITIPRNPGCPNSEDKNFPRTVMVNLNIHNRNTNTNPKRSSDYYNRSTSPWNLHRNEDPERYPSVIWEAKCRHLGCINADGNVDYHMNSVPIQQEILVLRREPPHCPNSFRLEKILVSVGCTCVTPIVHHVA
Assay: IL-8 release assay in human epithelial keratinocytes adult (HEKa)
Conditions: HEKa cells, 3 ng/mL HEK-human IL-17AA + 10 ng/mL human TNFalpha; read-out: Rel EC50 IL-8 release assay
pEC50: −log10 of the molar value.
# reported pEC50; entries follow

Some entries whose results are on file:
1) Cc1n[nH]c(C)c1-c1ccc(NC(=O)C(NC(=O)c2ccnn2C)C(c2ccccc2)C2CCC2)cc1 (single isomer, unassigned) [Example 299] ... > 7.00
2) CCn1nncc1C(=O)N[C@H](C(=O)Nc1ccc(-c2c(C)n[nH]c2C)cc1)[C@H]1CC[C@H](C)CC1 ... 6.00 to 7.00
3) Cc1n[nH]c(C)c1-c1ccc(NC(=O)[C@@H](NC(=O)c2c[nH]c3ncccc23)C2CCCCC2)cc1 ... < 6.00
4) Cc1n[nH]c(C)c1-c1ccc(NC(=O)C(NC(=O)c2ccnn2C)C2CCCc3cc(F)ccc32)cc1 (single isomer, unassigned) [Example 259] ... < 6.00
5) Cc1n[nH]c(C)c1-c1ccc(NC(=O)[C@@H](NC(=O)N2CCCCC2CCO)C2CCCCC2)cc1 (single isomer, unassigned) [Example 470] ... < 6.00

Item under review: Cn1cncc1-c1ccc(NC(=O)[C@@H](NC(=O)OC(C)(C)C)C(C2CCCCC2)C2CCCC2)cc1 (single isomer, unassigned) [Example 312] . Reported pEC50?
< 6.00

Same lookup for "Cc1n[nH]c(C)c1-c1ccc(NC(=O)[C@@H](NC(=O)c2ccnn2CCO)C(C2CC2)C2CC2)cc1" , please.
6.00 to 7.00

---

target: human IL-17AA (Homo sapiens, UniProt Q16552); assay: IL-8 release assay in human epithelial keratinocytes adult (HEKa); settings: HEKa cells, 3 ng/mL HEK-human IL-17AA + 10 ng/mL human TNFalpha; read-out: Rel EC50 IL-8 release assay
value.type: EC50

1) Cn1cncc1-c1ccc(NC(=O)[C@@H](NC(=O)c2ccnn2C)[C@H]2CCc3ccccc32)cc1 [Example 377] ... 0.1 to 1 µM
2) Cc1n[nH]c(C(C)(C)O)c1-c1ccc(NC(=O)[C@@H](NC(=O)c2ccnn2C)C(c2ccccc2)c2ccccc2)cc1 [Example 435] ... 0.1 to 1 µM

Fill in the recorded EC50 for this molecule, with human IL-17AA (Homo sapiens, UniProt Q16552) as test system: Cc1n[nH]c(C)c1-c1ccc(NC(=O)[C@H](Cc2ccccc2)NC(=O)c2ccnn2C)cc1 [Example 44]
> 1 µM

---

target: human IL-17AA (Homo sapiens, UniProt Q16552); assay: IL-8 release assay in human epithelial keratinocytes adult (HEKa); conditions: HEKa cells, 3 ng/mL HEK-human IL-17AA + 10 ng/mL human TNFalpha; read-out: Rel EC50 IL-8 release assay
value.type: EC50

Example results:
1) Cc1n[nH]c(C)c1-c1ccc(NC(=O)[C@@H](NC(=O)c2conc2-c2ccc(Cl)cc2)C2CCCCC2)cc1 ... > 1 µM
2) Cc1n[nH]c(C)c1-c1ccc(NC(=O)[C@H](Cc2ccccc2Cl)NC(=O)c2ccnn2C(C)C)cc1 ... 0.1 to 1 µM
3) Cc1ncn(C)c1-c1ccc(NC(=O)C(NC(=O)c2ccnn2C)C2CCC(F)(F)CC2)cc1 (single isomer, unassigned) [Example 333] ... > 1 µM
4) CCc1nocc1C(=O)N[C@H](C(=O)Nc1ccc(-c2c(C)n[nH]c2C)cc1)C1CCCCC1 ... < 0.1 µM
5) Cc1n[nH]c(C)c1-c1ccc(NC(=O)[C@@H](NC(=O)c2ccn(C(C)C#N)n2)C(C2CC2)C2CC2)cc1 (stereo partly drawn) ... > 1 µM

For CCn1nccc1C(=O)N[C@H](C(=O)Nc1ccc(-c2c(C)n[nH]c2C)cc1)C1C2CC3CC(C2)CC1C3 (stereo partly drawn) , what is its reported EC50?
< 0.1 µM

Also need "Cc1n[nH]c(C)c1-c1ccc(NC(=O)[C@@H](NC(=O)c2ccnn2CCCO)C(C2CCC2)C2CCC2)cc1" , thanks.
< 0.1 µM

Continue with CC(C)n1nccc1C(=O)N[C@H](C(=O)Nc1ccc(-c2c(C(F)(F)F)ncn2C)cc1)C1CCCCC1 [Example 371A]
0.1 to 1 µM

Next up: Cc1n[nH]c(C)c1-c1ccc(NC(=O)[C@@H](NC(=O)N2CCCC2CCO)C2CCCCC2)cc1 (single isomer, unassigned) [Example 466]
> 1 µM

Same question, CCn1nccc1C(=O)NC(C(=O)Nc1ccc(-c2c(C)n[nH]c2C)cc1)C(C1CCC1)C1CCC1 (racemic) [Example 35] this time
< 0.1 µM

Queued: "Cc1n[nH]c(C)c1-c1ccc(NC(=O)[C@@H](NC(=O)c2ccnn2C)[C@H]2CCc3ccc(C#N)cc32)cc1"
0.1 to 1 µM

---

Quick reference: EC50 of the listed items.
Target: human IL-17AA (Homo sapiens)
Sequence (Q16552 24-155): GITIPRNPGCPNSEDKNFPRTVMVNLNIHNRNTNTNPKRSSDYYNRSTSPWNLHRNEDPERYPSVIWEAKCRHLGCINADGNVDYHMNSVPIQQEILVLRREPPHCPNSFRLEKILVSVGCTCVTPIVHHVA
Test: IL-8 release assay in human epithelial keratinocytes adult (HEKa)
Settings: HEKa cells, 3 ng/mL HEK-human IL-17AA + 10 ng/mL human TNFalpha; read-out: Rel EC50 IL-8 release assay

Study these solved cases before continuing.
1) Cc1n[nH]c(C)c1-c1ccc(NC(=O)[C@@H](NC(=O)c2ccnn2C)C2C3CC4CC(C3)CC2C4)cc1 (stereo partly shown) ... < 100 nM
2) Cc1n[nH]c(C)c1-c1ccc(NC(=O)C(NC(=O)c2ccnn2C(C)C)C2CCCC2C)cc1 (stereo not shown) ... < 100 nM
3) Cc1n[nH]c(C)c1-c1ccc(NC(=O)[C@@H](NC(=O)c2ccnn2C)C2CCCCCC2)cc1 ... < 100 nM

Now consider a different compound.
Recorded EC50 for "Cc1[nH]nc(C2CC2)c1-c1ccc(NC(=O)[C@@H](NC(=O)c2ccnn2[C@H](C)CO)C(C2CC2)C2CC2)cc1" , please?
< 100 nM
